- System: K4 kissing-loop RNA reporter;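 also: bound reporter read as fluorescence of individual clusters on recovered sequencing chips by microscopy, with normalized cluster intensities fitted with a binding model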
- Procedure Summary: apparent KD of K4 kissing-loop reporter; higher = weaker reporter binding
- Condition Info: Eterna round: R107; input ligand: tryptophan 2.4 mM
# apparent KD of K4 kissing-loop reporter per entry

# Seq Text, apparent KD of K4 kissing-loop reporter, nM
data = [
    ("AGGAUCCGUCGACAAAAGUCGACAUAAACCGAGGAUAUGACGAAAGUCAGAAGGUGGUCAUAAGACCAGUGAUGUUGGUGGAUCC [FmnA 14 #SwitchBubble #K4Late]", 305),
    ("AGCCGAAAGGCGAGUGCUGUCACUCCGGAAGGAGCGCUCAAAAGAGCAGGUAGGUCGCCGGAGUGAUGUUCCGGUGCAGCACUCA [Omei KL Arginine A Exc B v4]", 623),
    ("AUACGCGAUAGCGUAUAUAACUUUUCAGAAGGAGCGUGGAAGUACACAGGUAGGUCGCUGAAUAUAGGACUAGUGAUGUUAGUUA [JR_Nu_SSArginiA_Sub025]", 186),
]

---

- System: MS2 coat protein
- Procedure Summary: apparent KD of MS2 coat protein; designed switch direction (-1 OFF switch, 1 ON switch): -1; higher = weaker reporter binding
- Condition Info: Eterna round: R95; input ligand: microRNA oligo, concentration not stated
Metric: apparent KD of MS2 coat protein (nM)

# Seq Text, Metric, Assay Result
measured = [
    ("AGUACUAACACGAAAGUGUUAGUACAAUAAGCUAGUGGAACAUGAGGAUCACCCAUGUCCUCAUUAGCUCGUCUUAA [Mat - Sensor v3 - Turn-off var 2 - D34] (puzzle: Sensor v3, turn-off variant 2)", "apparent KD of MS2 coat protein", 29.2),
    ("GGUCUGCGAGGAUAUACAUGAGGAUCACCCAUGUGAGAGAUACUAGUGAGGUCGAUUGGUAGAAGGCGCGGACG [JL-ex3-2.03 salish99 mod] (puzzle: Exclusion 3)", "apparent KD of MS2 coat protein", 124),
    ("AAGAAACAUGAGGAUCACCCAUGUGAGGAUAUGAUUAAGAAAAGAAAAGAAAGAAGAAUCAGAAGGCACAAAGG [salish99-ex1_r3_042] (puzzle: Exclusion 1)", "apparent KD of MS2 coat protein", 98.7),
    ("UUUAAUUUUUUUUUUUUACAAGCUUUUUGCUCGUCUUAUACAUGAGGAUCACCCAUGUGGGUAGGAGGUAAAUUAUC [JMF 72] (puzzle: Sensor v3, turn-off variant 2)", "apparent KD of MS2 coat protein", 50.4),
    ("AAAGAAACAGGAUAUGUAGGCUGCGACAUGAGGAUCACCCAUGUGUCGGUAUACAGUCCUAUAGAAGGGUUAUGAC [Tieder] (puzzle: Exclusion 5)", "apparent KD of MS2 coat protein", 13.1),
    ("UACCGGCGGACCGAAGCUUUUUGCUCGUCUUAUACUACAACAUGAGGAUCACCCAUGUGGUGGUGGUCCGUUGUAGU [JL ViennaUCT Bitein mod 4] (puzzle: Sensor v3, turn-off variant 2)", "apparent KD of MS2 coat protein", 15.7),
    ("GCGAAAGAAAACAGGUGAAACAUGAGGAUCACCCAUGUCCUCAUUUGCUCGUCUUAUAAGCUAUGCGAAAGCAUAGC [Mat - Sensor v3 - turn-off var 1 - Eli Mod - D52] (puzzle: Sensor v3, turn-off variant 1)", "apparent KD of MS2 coat protein", 391),
    ("AUAAUUUAAGUGAGGAUAUACCUAUGGAAACAUAGGUAGAAGGCACAUGAGGAUCACCCAUGUUCCUAUACAUA [Fiskers BMX 4 - 3] (puzzle: Brourd's mod of Exclusion 4)", "apparent KD of MS2 coat protein", 12),
    ("GGUGCGUAUGUGAGGAUAUGCUGGUCCUUGGAUCGGCAGAAGGCACAUGAGGAUCACCCAUGUGGUGUCGUACG [salish99_Bmod_ex4_078] (puzzle: Brourd's mod of Exclusion 4)", "apparent KD of MS2 coat protein", 51.8),
    ("UGAAAGUGAGGAUAUGGUGAGUAGUGCCUGAGCGCUGCUCACCAGAAGGCACAUGAGGAUCACCCAUGUAAAUG [Mat - Exclusion 4 - Mod of JL - D20] (puzzle: Exclusion 4)", "apparent KD of MS2 coat protein", 38.9),
]

---

- System: MS2 coat protein
- Procedure Summary: apparent KD of MS2 coat protein; higher = weaker reporter binding
- Condition Info: Eterna round: R107; input ligand: theophylline 2 mM

# Seq Text, apparent KD of MS2 coat protein [nM]
data = [
    ("ACAUGAGGAUCACCCAUGUGUCCUCGAAAACGAGGACCGGUACGGCCGCCACUCGAAAUAAGCUGUUGACGAAAAGUCAGCAGCA [Mat - Exclusion - Trytophan A - D21]", 152),
    ("AGCUACUCGUUCCUCAUGUACGAGUGGCAACGAGGACCGGUACGGCCGCCACUCGAAUAAACAUGAGGAUCACCCAUGUACAAAU [T''-M-T'-T-MS2 - Design 8]", 179),
    ("UUUUUCGUAGGUUAUAGUUUAGAAACUGAAGGAGCGUGGUAAUACACAGGUAGGUCGCAGAUUUUACAUGAGGAUCACCCAUGUU [JR_ExcArginiA_Sub013]", 25.1),
]

---

- Tested on: MS2 coat protein
- Procedure Summary: apparent KD of MS2 coat protein; designed switch direction (-1 OFF switch, 1 ON switch): -1; higher = weaker reporter binding
- Condition Info: input ligand: FMN 200 uM

# Seq Text, Unit Of Measure, apparent KD of MS2 coat protein
data = [
    ("GGAUAUAACGUAGGAUAUGAGCGCAACUGACGAUCAGAAGGACGACAUGAGGAUCACCCAUGUGAUCUAUCAAUAUUAUACAUG [Prohibition 95 - Jieux - Exclusion NG 1] (Eterna round: R96, puzzle: Exclusion NG 1)", "nM", 590),
    ("CCGGAACAUGAGGAUCACCCAUGUCAGGAUAUUCCAAAAUCGUCGAUAGACGAUAACAGGAGAAGGGACACCGG [Mat - Exclusion 1 - Eli Mod - D30] (Eterna round: R97, puzzle: Exclusion 1)", "nM", 20.4),
    ("AAAUAGCAUGAGGAUAUUGGACUGUAUUCAGUACGAGAAGGCAUGACAUGAGGAUCACCCAUGUUUUGUUGGGA [EX6 #6] (Eterna round: R97, puzzle: Exclusion 6)", "nM", 222),
    ("UGAUCUAGGCGAGGAUAUACAUGAGGAUCACCCAUGUAAACGUGACAUGGAAACAUGUCACGUGUGUAGAAGGCGCCUAGAUCU [MOD2 ENG2 3.54 by JL] (Eterna round: R96, puzzle: Exclusion NG 2)", "nM", 15.7),
    ("AUGUUGCGAGGAUAUAUAAGGGUAUAAUAAUAAGAUAUGGAACAUGAGGAUCACCCAUGUAGAAGGUGCAUAAC [JR_Ex2_Sub040] (Eterna round: R97, puzzle: Exclusion 2)", "nM", 840),
]

---

- Tested on: MS2 coat protein
- Procedure Summary: apparent KD of MS2 coat protein; designed switch direction (-1 OFF switch, 1 ON switch): -1; higher = weaker reporter binding
- Condition Info: input ligand: FMN 200 uM
# apparent KD of MS2 coat protein per entry
Metric: apparent KD of MS2 coat protein (nM)

# Seq Text, Metric, Assay Result
records = [
    ("GUGAACUCGCUACUUACCAACAUGAGGAUCACCCAUGUGGGAGAAAGUGAAUAGCUAGUUGUUACGUCUUAAUCCAG [Eternabot (L1) Solution 47] (Eterna round: R97, puzzle: Sensor, turn-off variant 1)", "apparent KD of MS2 coat protein", 12.7),
    ("UCUUUACAUGAGGAUCACCCAUGUCAGGAUAUCAACUUUUGGGACUUCGGAUAUAAGAUGAGAAGGGACACCGG [Eternabot (L2) Solution 53] (Eterna round: R97, puzzle: Exclusion 1)", "apparent KD of MS2 coat protein", 19.2),
]

---

- Tested on: MS2 coat protein
- Procedure Summary: apparent KD of MS2 coat protein; designed switch direction (-1 OFF switch, 1 ON switch): -1; higher = weaker reporter binding
- Condition Info: input ligand: FMN 200 uM

# Seq Text, Unit Of Measure, apparent KD of MS2 coat protein
data = [
    ("AGCUUUUUGUUCGUCUUACACAUGAGGAUCACCCAUGUGUUGGACCGCAUCGAUAGAUGUAGACCGAGAAGCAUGGG [Omdei Mir OFFv1 C8] (Eterna round: R97, puzzle: Sensor, turn-off variant 1)", "nM", 24.5),
    ("AGGUAGUCAGGAUAUUAGGAGUAGCGGGAUAACGCUACGAGUGAGAAGGGACAUGAGGAUCACCCAUGUUUUGU [JR_Ex4_Sub068] (Eterna round: R97, puzzle: Exclusion 4)", "nM", 24.3),
    ("GUAAUACAUGAGGAUCACCCAUGUUAGGAUAUCUGCAGGACGUCUCCCGUAUAUCCGUAGAGAAGGGACAGUGG [Eternabot (L1) Solution 20] (Eterna round: R97, puzzle: Exclusion 1)", "nM", 43),
    ("GGCGUCGUGUAGGAUAUGAAUUGAAAGGCUUCGUCAGAAGGGCACACAUGAGGAUCACCCAUGUGACAGCUGAG [Eternabot (L1) Solution 78] (Eterna round: R97, puzzle: Exclusion 6)", "nM", 20),
    ("GUAGAUCGAGUUAGGAUAUGAUUAAAAUCCGGAUAUCAGAAGGAACUUGAGGAUCACCCAAGUAUAGAUGAUUU [JR_BMEx4_Sub055] (Eterna round: R97, puzzle: Brourd's mod of Exclusion 4)", "nM", 104),
    ("UCAGGCUAUUAAACCGCCGACAUGAGGAUCACCCAUGUACUUCAUGCGCUAGCUUGCUCGUCUACCUCAAGGAUCCG [Eternabot (L2) Solution 24] (Eterna round: R97, puzzle: Sensor, turn-off variant 1)", "nM", 67.7),
    ("AAUUAAACAAGCAGAUCCCACAUGAGGAUCACCCAUGUGCUCGUCUUAUAAGGUACUGUGACAAAAGUCACGGUACC [Mat - Sensor, turn-off var - Eli Mod - D67] (Eterna round: R97, puzzle: Sensor, turn-off variant 1)", "nM", 47.9),
    ("UUUCAUCAUGUAGGAUAUGCGUGGCGAAGCUAUGCAGAAGGACAUGAGGAUCACCCAUGUUCUAGCGUCUGCGUACAGAUGCUA [JL ENG1 1.35] (Eterna round: R96, puzzle: Exclusion NG 1)", "nM", 226),
    ("UGAUUGUUUACCAGGUUAUACAUGAGGAUCACCCAUGUAGAUCCUACGUGCGCGUUGUUCCGCUCGUCUUAUUGCCA [Sensor-V1 #80] (Eterna round: R97, puzzle: Sensor, turn-off variant 1)", "nM", 22.6),
]
